Tested on: HEp-2 cells
experiment-description: cytotoxicity assay (percent viability of HEp-2 cells, Cell Titer-Glo)
condition-context: cell viability of HEp-2 cells (text: IC50); unit not given; top concentration 25 ug/mL (Chembridge), 50 uM (Enamine, SRI Proprietary)

- compound-structure-string: "O=C(Nc1ccc(OC(F)(F)F)cc1)c1ccc2[nH]cnc2c1"
  CC50: ">25.00"
- compound-structure-string: "Cc1cc(C=C(C#N)c2nc3ccccc3[nH]2)c(C)n1-c1ccccn1"
  CC50: ">25.00"
- compound-structure-string: "COc1cc(OC)c(OC)cc1C=Nn1c(S)nnc1-c1ccc(C(C)(C)C)cc1"
  CC50: ">25.00"
- compound-structure-string: "Brc1cc2nc[nH]c2c2ccccc12"
  CC50: ">25.00"
- compound-structure-string: "C=CCn1c(SCc2ccc(OC)c([N+](=O)[O-])c2)nnc1-c1cccc(Br)c1"
  CC50: ">25.00"
- compound-structure-string: "S=C(c1c[nH]c2ccc(Br)cc12)N1CCOCC1"
  CC50: ">25.00"
- compound-structure-string: "O=C(Nc1ccc2[nH]c(-c3ccccc3)nc2c1)c1ccccc1"
  CC50: ">25.00"
- compound-structure-string: "Cc1ccc2[nH]c(-c3sc4nc(C)ccc4c3N)nc2c1"
  CC50: ">25.00"
- compound-structure-string: "Cc1[nH]c2ccccc2c1-c1csc(-c2ccncc2)n1"
  CC50: ">25.00"

====

Tested on: RSV, Long strain
experiment-description: virus titer Reduction (VTR) assay, progeny virus TCID50 in HEp-2 cells
Assay type: cell-based, respiratory syncytial virus (RSV)
condition-context: human respiratory syncytial virus, 48 h, 3 ug/ml compound, read-out: TCID-50 Reduction @ 3 ug/ml
Collected log reduction at 3 µg/mL values appear next to each entry.

- compound: "O=C(NCCSCc1c(F)cccc1Cl)c1cccc([N+](=O)[O-])c1 [AB00306112]"
  study-system: "RSV, Long strain"
  log reduction at 3 µg/mL: 1.85
- compound: "O=C(Nc1cccc(NC(=O)C23CC4CC(CC(C4)C2)C3)c1)c1ccccc1F [AB00359685]"
  study-system: "RSV, Long strain"
  log reduction at 3 µg/mL: 1
- compound: "O=C(Nc1ccc(Nc2ccccc2)cc1)c1ccccc1Cl [AB00280499]"
  study-system: "RSV, Long strain"
  log reduction at 3 µg/mL: 2.55
- compound: "COC(=O)c1c(-c2ccccc2)csc1NC(=O)c1ccccc1Cl [AB00311298]"
  study-system: "RSV, Long strain"
  log reduction at 3 µg/mL: 1.53
- compound: "Cc1ccc(-c2csc(N)c2C(N)=O)cc1C [AB00310739]"
  study-system: "RSV, Long strain"
  log reduction at 3 µg/mL: 1.03
- compound: "COc1ccc(CNCCC(c2ccc(F)cc2)c2ccco2)cc1OC (stereo not drawn) [AB00362846]"
  study-system: "RSV, Long strain"
  log reduction at 3 µg/mL: 1
- compound: "O=C(Cc1c(F)cccc1Cl)Nc1nc2c(s1)CCCC2 [AB00361531]"
  study-system: "RSV, Long strain"
  log reduction at 3 µg/mL: 1.55
- compound: "Cc1ccc(N(CCCCN2C(=O)c3ccccc3C2=O)C(=O)c2cccc([N+](=O)[O-])c2)cc1 [AB00301184]"
  study-system: "RSV, Long strain"
  log reduction at 3 µg/mL: 1.53
- compound: "CCOC(=O)C1=C(C)NC(C)=C(C(=O)OCC)C1c1ccc(C#N)cc1 [AB00370331]"
  study-system: "RSV, Long strain"
  log reduction at 3 µg/mL: -0.15

Cited source for all entries: patent US20130085133A1
